# Test summary: Single IV dose toxicokinetics in dogs
# Assay type: in vivo
# Condition info: dog, in vivo; female dogs, 0.9 mg/kg single IV, Study Day 0, N = 1
Test readout: AUC(0-t) (ng·h/mL)

>  <Molecule>
CC1(C)C(=CC=C2CCCC(C=CC3=[N+](CCCCS(=O)(=O)[O-])c4ccc(S(=O)(=O)O)cc4C3(C)C)=C2Oc2ccc(CC(NC(=O)c3ccc(NCc4cnc5nc(N)[nH]c(=O)c5n4)cc3)C(=O)O)cc2)N(CCCCS(=O)(=O)O)c2ccc(S(=O)(=O)O)cc21 (stereo not shown) [pafolacianine]

>  <Data value>
362

$$$$

====

# Test summary: Repeat once-weekly IV dose toxicokinetics in rats
# Type: in vivo
# Condition info: male, rat, in vivo, iv, 30.8 mg/kg, rats M, 30.8 mg/kg once-weekly IV, Day 13; read-out: T1/2 (converted)

>  <Compound>
CC1(C)C(=CC=C2CCCC(C=CC3=[N+](CCCCS(=O)(=O)[O-])c4ccc(S(=O)(=O)O)cc4C3(C)C)=C2Oc2ccc(CC(NC(=O)c3ccc(NCc4cnc5nc(N)[nH]c(=O)c5n4)cc3)C(=O)O)cc2)N(CCCCS(=O)(=O)O)c2ccc(S(=O)(=O)O)cc21 (stereo not shown) [pafolacianine]

>  <half-life [h]>
10.4

$$$$

====

# Test summary: Repeat once-weekly IV dose toxicokinetics in dogs
# Type: in vivo
# Condition info: female, dog, in vivo, iv, 13.9 mg/kg, dogs F, 13.9 mg/kg once-weekly IV, Day 13

>  <Molecule>
CC1(C)C(=CC=C2CCCC(C=CC3=[N+](CCCCS(=O)(=O)[O-])c4ccc(S(=O)(=O)O)cc4C3(C)C)=C2Oc2ccc(CC(NC(=O)c3ccc(NCc4cnc5nc(N)[nH]c(=O)c5n4)cc3)C(=O)O)cc2)N(CCCCS(=O)(=O)O)c2ccc(S(=O)(=O)O)cc21 (stereo not shown) [pafolacianine]

>  <AUC(0-inf) [µg·h/mL]>
129

$$$$

====

# Test summary: Phase 1a pharmacokinetics in healthy volunteers, single IV administration
# Format: in vivo, human
# Condition info: human, plasma, intravenous, 0.025 mg/kg; read-out: mean plasma clearance (converted)

>  <Compound>
CC1(C)C(=CC=C2CCCC(C=CC3=[N+](CCCCS(=O)(=O)[O-])c4ccc(S(=O)(=O)O)cc4C3(C)C)=C2Oc2ccc(CC(NC(=O)c3ccc(NCc4cnc5nc(N)[nH]c(=O)c5n4)cc3)C(=O)O)cc2)N(CCCCS(=O)(=O)O)c2ccc(S(=O)(=O)O)cc21 (stereo not shown)

>  <clearance [mL/min]>
477

$$$$

====

# Test summary: Repeat once-weekly IV dose toxicokinetics in dogs
# Type: in vivo
# Condition info: female, dog, in vivo, iv, 0.9 mg/kg, dogs F, 0.9 mg/kg once-weekly IV, Day 13
Test readout: C0

>  <Compound>
CC1(C)C(=CC=C2CCCC(C=CC3=[N+](CCCCS(=O)(=O)[O-])c4ccc(S(=O)(=O)O)cc4C3(C)C)=C2Oc2ccc(CC(NC(=O)c3ccc(NCc4cnc5nc(N)[nH]c(=O)c5n4)cc3)C(=O)O)cc2)N(CCCCS(=O)(=O)O)c2ccc(S(=O)(=O)O)cc21 (stereo not shown)

>  <Data value>
8920 ng/mL

$$$$

====

# Test summary: Single IV dose toxicokinetics in dogs
# Type: in vivo
# Condition info: dog, in vivo; male dogs, 13.9 mg/kg single IV, Study Day 0

>  <Compound>
CC1(C)C(=CC=C2CCCC(C=CC3=[N+](CCCCS(=O)(=O)[O-])c4ccc(S(=O)(=O)O)cc4C3(C)C)=C2Oc2ccc(CC(NC(=O)c3ccc(NCc4cnc5nc(N)[nH]c(=O)c5n4)cc3)C(=O)O)cc2)N(CCCCS(=O)(=O)O)c2ccc(S(=O)(=O)O)cc21 (stereo not shown) [pafolacianine]

>  <C0 [µg/mL]>
107

$$$$

====

# Test summary: Repeat once-weekly IV dose toxicokinetics in dogs
# Type: in vivo
# Condition info: female, dog, in vivo, iv, 0.9 mg/kg, dogs F, 0.9 mg/kg once-weekly IV, Day 0

>  <Molecule>
CC1(C)C(=CC=C2CCCC(C=CC3=[N+](CCCCS(=O)(=O)[O-])c4ccc(S(=O)(=O)O)cc4C3(C)C)=C2Oc2ccc(CC(NC(=O)c3ccc(NCc4cnc5nc(N)[nH]c(=O)c5n4)cc3)C(=O)O)cc2)N(CCCCS(=O)(=O)O)c2ccc(S(=O)(=O)O)cc21 (stereo not shown)

>  <clearance [mL/min/kg]>
1.59

$$$$

====

# Test summary: Repeat once-weekly IV dose toxicokinetics in rats
# Type: in vivo
# Condition info: male, rat, in vivo, iv, 46.3 mg/kg, rats M, 46.3 mg/kg once-weekly IV, Day 13
# Procedure: […] On both Day 1 and Day 13, increases in pafolacianine exposure (AUCinf) were trending slightly greater than dose proportional, noting that sparse blood sampling was employed so the variability in the AUCs could not be assessed. […] CL was slow (relative to hepatic blood flow) and Vss was moderate. Mean T1/2 ranged from approximately 6 to 11 hours.

>  <Molecule>
CC1(C)C(=CC=C2CCCC(C=CC3=[N+](CCCCS(=O)(=O)[O-])c4ccc(S(=O)(=O)O)cc4C3(C)C)=C2Oc2ccc(CC(NC(=O)c3ccc(NCc4cnc5nc(N)[nH]c(=O)c5n4)cc3)C(=O)O)cc2)N(CCCCS(=O)(=O)O)c2ccc(S(=O)(=O)O)cc21 (stereo not shown)

>  <Value unit>
mL/min/kg

>  <clearance>
2.03

$$$$

====

# Test summary: Plasma protein binding, equilibrium dialysis, human plasma
# Format: in vitro ADME
# Condition info: human, plasma
Test readout: fraction unbound at 5 μM

>  <Compound>
CC1(C)C(=CC=C2CCCC(C=CC3=[N+](CCCCS(=O)(=O)[O-])c4ccc(S(=O)(=O)O)cc4C3(C)C)=C2Oc2ccc(CC(NC(=O)c3ccc(NCc4cnc5nc(N)[nH]c(=O)c5n4)cc3)C(=O)O)cc2)N(CCCCS(=O)(=O)O)c2ccc(S(=O)(=O)O)cc21 (stereo not shown) [pafolacianine]

>  <Data value>
0.063

$$$$

====

# Test summary: Repeat once-weekly IV dose toxicokinetics in dogs
# Type: in vivo
# Condition info: male, dog, in vivo, iv, 9.3 mg/kg, dogs M, 9.3 mg/kg once-weekly IV, Day 0
Test readout: clearance

>  <Compound>
CC1(C)C(=CC=C2CCCC(C=CC3=[N+](CCCCS(=O)(=O)[O-])c4ccc(S(=O)(=O)O)cc4C3(C)C)=C2Oc2ccc(CC(NC(=O)c3ccc(NCc4cnc5nc(N)[nH]c(=O)c5n4)cc3)C(=O)O)cc2)N(CCCCS(=O)(=O)O)c2ccc(S(=O)(=O)O)cc21 (stereo not shown)

>  <Test readout>
clearance

>  <Data value>
1.92 mL/min/kg

$$$$

====

# Test summary: Repeat once-weekly IV dose toxicokinetics in dogs
# Format: in vivo
# Condition info: male, dog, in vivo, iv, 0.9 mg/kg, dogs M, 0.9 mg/kg once-weekly IV, Day 0
Test readout: clearance (mL/min/kg)

>  <Molecule>
CC1(C)C(=CC=C2CCCC(C=CC3=[N+](CCCCS(=O)(=O)[O-])c4ccc(S(=O)(=O)O)cc4C3(C)C)=C2Oc2ccc(CC(NC(=O)c3ccc(NCc4cnc5nc(N)[nH]c(=O)c5n4)cc3)C(=O)O)cc2)N(CCCCS(=O)(=O)O)c2ccc(S(=O)(=O)O)cc21 (stereo not shown)

>  <Data value>
2.39

$$$$

====

# Test summary: Repeat once-weekly IV dose toxicokinetics in rats
# Type: in vivo
# Condition info: female, rat, in vivo, iv, 30.8 mg/kg, rats F, 30.8 mg/kg once-weekly IV, Day 0; read-out: T1/2 (converted)

>  <Compound>
CC1(C)C(=CC=C2CCCC(C=CC3=[N+](CCCCS(=O)(=O)[O-])c4ccc(S(=O)(=O)O)cc4C3(C)C)=C2Oc2ccc(CC(NC(=O)c3ccc(NCc4cnc5nc(N)[nH]c(=O)c5n4)cc3)C(=O)O)cc2)N(CCCCS(=O)(=O)O)c2ccc(S(=O)(=O)O)cc21 (stereo not shown)

>  <Value unit>
h

>  <half-life>
8.69

$$$$

====

# Test summary: Phase 1a pharmacokinetics in healthy volunteers, single IV administration
# Format: in vivo, human
# Condition info: human, plasma, intravenous, 0.05 mg/kg, in 220 ml 5% dextrose, 60-min infusion; read-out: Cmax
Test readout: Cmax (ng/mL)

>  <Compound>
CC1(C)C(=CC=C2CCCC(C=CC3=[N+](CCCCS(=O)(=O)[O-])c4ccc(S(=O)(=O)O)cc4C3(C)C)=C2Oc2ccc(CC(NC(=O)c3ccc(NCc4cnc5nc(N)[nH]c(=O)c5n4)cc3)C(=O)O)cc2)N(CCCCS(=O)(=O)O)c2ccc(S(=O)(=O)O)cc21 (stereo not shown)

>  <Test readout>
Cmax

>  <Data value>
184

$$$$

====

# Test summary: Phase 1a pharmacokinetics in healthy volunteers, single IV administration
# Format: in vivo, human
# Condition info: human, plasma, intravenous, 0.1 mg/kg, in 220 ml 5% dextrose, 60-min infusion; read-out: Vz

>  <Molecule>
CC1(C)C(=CC=C2CCCC(C=CC3=[N+](CCCCS(=O)(=O)[O-])c4ccc(S(=O)(=O)O)cc4C3(C)C)=C2Oc2ccc(CC(NC(=O)c3ccc(NCc4cnc5nc(N)[nH]c(=O)c5n4)cc3)C(=O)O)cc2)N(CCCCS(=O)(=O)O)c2ccc(S(=O)(=O)O)cc21 (stereo not shown) [pafolacianine]

>  <Vd>
22.2 L

$$$$
